- protocolDescription: Inhibitory activity against phosphodiesterase using 1 uM cyclic-AMP as substrate in bovine heart
- Parameters: species or system Bos taurus
- runParameters: read-out: I50
propertyName: IC50 (µM)

{"compound": "CCC1C(=O)N2C=Cc3ccccc3C2=[N+](CC)C1=O (stereo not given)", "unitOfMeasurement": "µM", "result": 127}
{"compound": "O=C1CC(=O)[N+](CC2CC2)=C2SC=CN12", "unitOfMeasurement": "µM", "result": 495}
{"compound": "CC[N+]1=C2SC=CN2C(=O)C(C)C1=O (stereo not given)", "unitOfMeasurement": "µM", "result": 951}
{"compound": "CCC1C(=O)N2C=CSC2=[N+](Cc2cccc(Cl)c2)C1=O (stereo not given)", "unitOfMeasurement": "µM", "result": 208}
{"compound": "CCC1C(=O)N2C=CSC2=[N+](CC(C)C)C1=O (stereo not given)", "unitOfMeasurement": "µM", "result": 498}
{"compound": "CC[N+]1=C2SC=NN2C(=O)CC1=O", "unitOfMeasurement": "µM", "result": 774}

a = CC[N+]1=C2SC=CN2C(=O)CC1=O
b = CCC1C(=O)N2N=CSC2=[N+](CC)C1=O (stereo not given)
INPUT: Which value of IC50 is numerically greater: that of a or that of b ? Give the label of your selection.
OUTPUT: a
(a: 988 µM, b: 555 µM)
